# experimental_system: human 5-HT4(a) (Homo sapiens)
# Sequence (Q13639 1-387 isoform Q13639-2): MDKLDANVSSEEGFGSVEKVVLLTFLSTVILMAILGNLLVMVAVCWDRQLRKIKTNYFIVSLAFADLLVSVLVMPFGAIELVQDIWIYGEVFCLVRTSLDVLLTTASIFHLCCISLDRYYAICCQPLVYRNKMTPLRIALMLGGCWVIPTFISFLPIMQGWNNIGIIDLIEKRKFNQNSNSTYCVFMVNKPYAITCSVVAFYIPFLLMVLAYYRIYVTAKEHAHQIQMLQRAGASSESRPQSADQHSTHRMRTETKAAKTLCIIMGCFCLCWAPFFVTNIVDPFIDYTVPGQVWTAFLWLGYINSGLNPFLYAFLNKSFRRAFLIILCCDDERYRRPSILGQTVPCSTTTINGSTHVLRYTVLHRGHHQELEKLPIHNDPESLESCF
# test_protocol: Evaluation of agonistic activity in CHO-K1 cells expressing human 5-HT4(a) (GeneBIAzer HTR4-CRE-bla CHO-K1 cells, beta-lactamase fluorescence ratio, EC50 from 8 concentrations)
# Method: Evaluation of Agonistic Activity in CHO-K1 Cells Expressing Human 5-HT4(a) As CHO-K1 cells stably expressing human 5-HT4(a), we used the GeneBIAzer HTR4-CRE-bla CHO-K1 cells (Invitrogen Corp.). […] Agonistic activities on 5-HT4 receptor were evaluated, on the basis of fluorescence values of the cleavage-products by beta-lactamase. […] Data were analyzed on the basis of the ratio of fluorescence intensities of each well at the respective wavelengths. […]
quantity: EC50 (pM)
Answer with a number only, understood to be in pM.

The following compounds have reported results that may help.
compound=CCCc1cc(N2CCC[C@@H](NC)C2)nc(Nc2ccc(C)c(OC)c2)n1 reported_result=11
compound=CCCc1cc(N2CCNC[C@H]2C)nc(Nc2ccc(C)c(C#N)c2)n1 reported_result=13
compound=CCCCc1cc(N2CCC[C@@H](NC)C2)nc(Nc2ccc(C)c(C#N)c2)n1 reported_result=2.6
compound=CCCCc1cc(N2CCC[C@@H](NC)C2)nc(Nc2ccc(N)c(C#N)c2)n1 reported_result=6.7
compound="CCCc1cc(N2CCCCC2CCO)nc(Nc2cccc(SC)c2)n1 (centres unmarked)" reported_result=73
compound=CCCCc1cc(N2CCC[C@@H](NC(C)=O)C2)nc(Nc2ccc(F)c(N)c2)n1 reported_result=14
compound="CCCc1cc(N2CCCCC2CCO)nc(Nc2ccc3nc(C(F)(F)F)[nH]c3c2)n1 (centres unmarked)" reported_result=350

The record that follows has no EC50 shown yet.
Consider the compound CCCc1cc(N2CCCCC2CC)nc(Nc2ccc3nc(C(F)(F)F)[nH]c3c2)n1 (centres unmarked) and give its measured EC50.
320
